The measured values listed here are drawn from the supplement of paper PMC10567573.

B1: INTS3 (parent)
chain: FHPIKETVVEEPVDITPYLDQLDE

Variants of: B1
Test: protein stability index of a GFP-peptide fusion (GPS, HEK-293T) (PSI 1-6); higher = more stable;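 also: lentivirally expressed fusions sorted by FACS into six bins by GFP to DsRed ratio, PSI derived from sequencing read proportions per bin multiplied by bin number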
Settings: c terminus: a fixed tail appended
value-type: protein stability index
Enter the number alone.

protein stability index reported for this variant P3Q : 3.78

Measured protein stability index, F1E : 5.2

Record summary for P3N : reported protein stability index = 4.63

The variant Q21W showed protein stability index equal to 2.26

# protein stability index of I4Y = 2.77

For record E24P the listed protein stability index is 2.63

get_value(item= E24V , readout=protein stability index) returns 2.99

// sample E10I , its protein stability index was 2.08

E11M yielded protein stability index of 2.93

Recorded result, K5L , protein stability index: 3.87

Per the records, this variant ( D20Y ) has protein stability index equal to 2.08

Note to self: protein stability index recorded for H2V was 2.16

Input E6C . Output protein stability index: 1.78
